TARGET_OF_ASSAY: F508delCFTR (Homo sapiens, UniProt P13569, DEL508-508)
Construct: expressed in transfected cells; host or cells: CFBE41o- human lung-derived epithelial cells (CFBE4lo-F508delCFTR-HRP), doxycycline-inducible
Sequence (P13569 with tags, fused parts or gaps DEL508-508): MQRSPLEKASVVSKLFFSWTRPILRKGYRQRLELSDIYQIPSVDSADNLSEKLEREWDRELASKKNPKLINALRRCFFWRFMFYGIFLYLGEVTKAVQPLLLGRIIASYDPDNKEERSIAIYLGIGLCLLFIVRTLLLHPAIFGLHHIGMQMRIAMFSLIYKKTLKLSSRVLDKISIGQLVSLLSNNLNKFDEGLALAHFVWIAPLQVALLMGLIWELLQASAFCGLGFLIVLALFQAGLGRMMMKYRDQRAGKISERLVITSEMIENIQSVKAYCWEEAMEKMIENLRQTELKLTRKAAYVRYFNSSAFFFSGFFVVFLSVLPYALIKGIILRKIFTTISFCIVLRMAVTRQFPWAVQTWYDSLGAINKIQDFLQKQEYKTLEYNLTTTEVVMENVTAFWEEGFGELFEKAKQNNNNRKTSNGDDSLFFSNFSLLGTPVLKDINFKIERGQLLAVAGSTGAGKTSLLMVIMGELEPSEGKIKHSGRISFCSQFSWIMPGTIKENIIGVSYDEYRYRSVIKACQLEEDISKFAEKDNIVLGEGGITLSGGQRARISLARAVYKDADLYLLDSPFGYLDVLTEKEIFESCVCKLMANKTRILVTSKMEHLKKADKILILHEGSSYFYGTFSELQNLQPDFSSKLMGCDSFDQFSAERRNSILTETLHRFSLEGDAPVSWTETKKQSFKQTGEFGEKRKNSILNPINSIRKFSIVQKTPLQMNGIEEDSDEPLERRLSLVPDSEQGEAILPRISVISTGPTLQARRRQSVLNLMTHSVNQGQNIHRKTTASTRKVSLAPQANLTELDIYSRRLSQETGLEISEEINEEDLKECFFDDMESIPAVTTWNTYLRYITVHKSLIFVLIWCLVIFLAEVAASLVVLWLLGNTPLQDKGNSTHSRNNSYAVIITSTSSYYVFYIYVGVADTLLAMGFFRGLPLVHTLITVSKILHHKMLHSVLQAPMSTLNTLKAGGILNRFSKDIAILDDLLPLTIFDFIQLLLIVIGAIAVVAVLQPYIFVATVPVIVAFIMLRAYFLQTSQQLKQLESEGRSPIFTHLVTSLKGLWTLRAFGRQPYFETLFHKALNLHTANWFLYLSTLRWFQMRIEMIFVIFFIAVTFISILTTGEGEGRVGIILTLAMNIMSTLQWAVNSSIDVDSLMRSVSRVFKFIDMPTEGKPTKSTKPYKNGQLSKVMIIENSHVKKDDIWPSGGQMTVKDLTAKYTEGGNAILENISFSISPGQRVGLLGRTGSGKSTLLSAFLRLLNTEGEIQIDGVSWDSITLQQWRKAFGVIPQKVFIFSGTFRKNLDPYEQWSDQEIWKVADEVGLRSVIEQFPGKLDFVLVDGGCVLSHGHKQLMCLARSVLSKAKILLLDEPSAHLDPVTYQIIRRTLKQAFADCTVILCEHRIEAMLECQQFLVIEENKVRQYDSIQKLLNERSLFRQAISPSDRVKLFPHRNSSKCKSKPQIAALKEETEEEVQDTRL
PROCEDURE_SUMMARY: Cell Surface Expression-Horse Radish Peroxidase (CSE-HRP) Assay;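 as to Maximum % activity (without co-corrector): percent of the 2 µM on-plate positive control corrector response above DMSO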
Format: cell-based
RUN_PARAMETERS: test compound without co-corrector; maximum at any tested concentration, normalized to on-plate positive control; read-out: Maximum % activity (without co-corrector)
OUTCOME_MEASURE: Emax

COMPOUND	RECORDED_RESULT
CC(C)(C)[C@H]1[C@H](NCc2ccc(F)cc2C#N)[C@H](c2ccccc2)N(C(=O)C2CCCCC2)[C@@H]1C(=O)O	< 100%
CCS(=O)(=O)NC(=O)[C@H]1[C@H](C(C)(C)C)[C@@H](Nc2cc(C(F)(F)F)cc(C)n2)[C@@H](c2ccccc2)N1C(=O)C1CCCCC1 (racemic)	< 100%
COc1cc2c(cc1CN[C@H]1[C@H](C(C)(C)C)[C@@H](C(=O)O)N(C(=O)C3CCCCC3)[C@H]1c1ccccc1)C(C)(C)CCC2(C)C	100 to 200%
COc1ccc(C23CC(C2)C3)cc1CN[C@H]1[C@H](C(C)(C)C)[C@@H](C(=O)O)N(C(=O)OC(C)C)[C@H]1c1cccnc1OC(F)F	100 to 200%
COc1ccc(C(C)(C)C)cc1CN[C@H]1[C@H](C(C)(C)C)[C@@H](C(=O)O)N(C(=O)C2CCc3ccccc3O2)[C@H]1c1cccnc1N(C)C (single isomer, unassigned)	< 100%
COc1ncc(C(F)(F)F)cc1CN[C@H]1[C@H](C23CC(C2)C3)[C@@H](C(=O)O)N(C(=O)OC(C)C)[C@H]1c1ccccc1	100 to 200%

* * *

TARGET_OF_ASSAY: F508delCFTR (Homo sapiens, UniProt P13569, DEL508-508)
Construct: expressed in transfected cells; host or cells: CFBE41o- human lung-derived epithelial cells (CFBE4lo-F508delCFTR-HRP), doxycycline-inducible
PROCEDURE_SUMMARY: Cell Surface Expression-Horse Radish Peroxidase (CSE-HRP) Assay
Format: cell-based
RUN_PARAMETERS: test compound without co-corrector; read-out: EC50 (without co-corrector)
Listing: EC50 of selected molecules

MOLECULE	TARGET_OF_ASSAY	EC50
CC(C)(C)[C@H]1[C@H](NCc2ccc(OC(F)(F)F)c(F)c2)[C@H](c2ccccc2)N(C(=O)C2CCCCC2)[C@@H]1C(=O)O	F508delCFTR (Homo sapiens, UniProt P13569, DEL508-508)	> 10 µM
COc1ncc([Si](C)(C)C)cc1CN[C@H]1[C@H](C(C)(C)C)[C@@H](C(=O)O)N(C(=O)C2CCCCC2)[C@H]1c1ccccc1	F508delCFTR (Homo sapiens, UniProt P13569, DEL508-508)	< 1 µM
COc1ccc(C(C)(C)C)cc1CN[C@H]1[C@H](C(C)(C)C)[C@@H](C(=O)O)N(C(=O)C2CCc3ccc(F)cc3O2)[C@H]1c1cccnc1N(C)C (single isomer, unassigned) [II-453]	F508delCFTR (Homo sapiens, UniProt P13569, DEL508-508)	> 10 µM
CCN(C)S(=O)(=O)NC(=O)[C@H]1[C@H](C(C)(C)C)[C@@H](Nc2cc(C(F)(F)F)cc(C)n2)[C@@H](c2ccccc2)N1C(=O)C1CCCCC1 (racemic)	F508delCFTR (Homo sapiens, UniProt P13569, DEL508-508)	> 10 µM
COc1ncc(C2CCC2)cc1CN[C@H]1[C@H](C(C)(C)C)[C@@H](C(=O)O)N(C(=O)[C@@H]2CCCO2)[C@H]1c1ccccc1Br	F508delCFTR (Homo sapiens, UniProt P13569, DEL508-508)	1 to 10 µM
COc1ccc(Cl)cc1CN[C@H]1[C@H](C(C)(C)C)[C@@H](C(=O)O)N(C(=O)OC(C)C)[C@H]1c1cccnc1N(C)C	F508delCFTR (Homo sapiens, UniProt P13569, DEL508-508)	1 to 10 µM
